molecular target: α1G T-type calcium channel (Homo sapiens, UniProt O43497); construct: host or cells: HEK293; assay: Assay for % inhibiting activity against T-type calcium channel using FDSS6000 (fluo-3 calcium imaging, KCl activation); format: cell-based; settings: HEK293, 10 μM; HEK293 cells stably expressing α1G T-type calcium channel and Kir2.1; compounds of the examples; read-out: FDSS (% inhibition)/10uM
Sequence (O43497 whole entry): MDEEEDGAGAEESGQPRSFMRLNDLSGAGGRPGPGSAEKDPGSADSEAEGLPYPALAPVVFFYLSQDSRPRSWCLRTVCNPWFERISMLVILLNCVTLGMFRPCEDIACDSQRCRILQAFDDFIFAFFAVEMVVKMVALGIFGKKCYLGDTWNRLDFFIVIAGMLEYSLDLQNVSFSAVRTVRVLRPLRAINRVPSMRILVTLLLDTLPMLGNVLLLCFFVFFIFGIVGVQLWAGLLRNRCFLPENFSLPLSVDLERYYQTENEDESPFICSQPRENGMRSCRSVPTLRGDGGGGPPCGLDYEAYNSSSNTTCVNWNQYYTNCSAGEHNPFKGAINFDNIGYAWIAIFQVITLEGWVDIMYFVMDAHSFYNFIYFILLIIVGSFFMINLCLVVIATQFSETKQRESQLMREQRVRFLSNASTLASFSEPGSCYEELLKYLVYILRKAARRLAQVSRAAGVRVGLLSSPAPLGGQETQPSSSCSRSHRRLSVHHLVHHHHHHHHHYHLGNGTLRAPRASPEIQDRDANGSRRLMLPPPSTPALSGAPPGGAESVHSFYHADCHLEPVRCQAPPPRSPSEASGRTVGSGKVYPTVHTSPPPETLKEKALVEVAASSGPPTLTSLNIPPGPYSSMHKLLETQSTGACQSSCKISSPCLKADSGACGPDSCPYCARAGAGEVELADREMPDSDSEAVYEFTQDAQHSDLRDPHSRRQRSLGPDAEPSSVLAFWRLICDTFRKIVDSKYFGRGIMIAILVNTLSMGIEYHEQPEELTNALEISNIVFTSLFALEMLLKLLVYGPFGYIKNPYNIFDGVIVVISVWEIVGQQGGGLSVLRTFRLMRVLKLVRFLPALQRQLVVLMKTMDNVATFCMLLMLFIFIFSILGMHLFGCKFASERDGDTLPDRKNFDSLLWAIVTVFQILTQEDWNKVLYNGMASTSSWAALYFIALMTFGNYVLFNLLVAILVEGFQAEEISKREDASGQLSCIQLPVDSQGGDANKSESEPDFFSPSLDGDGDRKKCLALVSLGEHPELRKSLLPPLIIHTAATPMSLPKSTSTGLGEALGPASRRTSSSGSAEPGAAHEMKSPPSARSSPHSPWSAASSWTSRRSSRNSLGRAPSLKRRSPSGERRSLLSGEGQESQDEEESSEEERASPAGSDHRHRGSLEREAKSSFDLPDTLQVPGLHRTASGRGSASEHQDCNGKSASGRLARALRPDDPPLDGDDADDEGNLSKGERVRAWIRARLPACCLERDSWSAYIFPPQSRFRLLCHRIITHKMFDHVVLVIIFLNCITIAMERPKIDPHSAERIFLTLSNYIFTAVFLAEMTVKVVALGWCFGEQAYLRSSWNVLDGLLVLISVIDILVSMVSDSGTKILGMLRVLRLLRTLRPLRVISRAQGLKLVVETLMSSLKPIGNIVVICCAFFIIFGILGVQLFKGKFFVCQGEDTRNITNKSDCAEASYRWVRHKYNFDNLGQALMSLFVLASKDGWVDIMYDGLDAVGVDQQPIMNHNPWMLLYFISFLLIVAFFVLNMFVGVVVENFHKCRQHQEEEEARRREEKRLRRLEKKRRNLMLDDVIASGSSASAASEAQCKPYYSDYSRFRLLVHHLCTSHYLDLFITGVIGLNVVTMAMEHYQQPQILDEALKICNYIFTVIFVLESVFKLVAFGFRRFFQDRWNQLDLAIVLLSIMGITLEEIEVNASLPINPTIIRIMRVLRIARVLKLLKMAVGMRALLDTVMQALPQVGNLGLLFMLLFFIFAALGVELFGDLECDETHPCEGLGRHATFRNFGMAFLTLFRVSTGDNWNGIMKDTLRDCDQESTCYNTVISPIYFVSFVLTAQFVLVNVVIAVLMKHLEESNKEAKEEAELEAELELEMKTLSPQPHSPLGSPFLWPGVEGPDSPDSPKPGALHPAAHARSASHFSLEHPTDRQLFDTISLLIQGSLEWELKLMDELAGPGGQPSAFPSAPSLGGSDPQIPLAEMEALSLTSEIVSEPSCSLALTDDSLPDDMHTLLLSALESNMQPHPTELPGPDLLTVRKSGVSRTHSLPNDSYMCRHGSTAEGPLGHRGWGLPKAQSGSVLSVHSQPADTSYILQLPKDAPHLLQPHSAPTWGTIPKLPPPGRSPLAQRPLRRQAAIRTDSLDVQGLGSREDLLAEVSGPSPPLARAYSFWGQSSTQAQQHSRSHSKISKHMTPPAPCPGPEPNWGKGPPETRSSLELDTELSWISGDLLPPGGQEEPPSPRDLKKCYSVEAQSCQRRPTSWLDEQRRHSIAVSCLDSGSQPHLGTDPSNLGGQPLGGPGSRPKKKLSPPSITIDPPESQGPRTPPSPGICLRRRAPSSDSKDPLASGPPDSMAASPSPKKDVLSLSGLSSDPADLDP
observable: inhibition at 10 µM (%)

Example entries and their recorded answers appear below.
CN1C(=NC2CCCCCC2)SCC1C(=O)Nc1ccccc1Br.Cl (stereo not shown) [KHG24634, hydrochloride] :: 46.9
CC1SC(=NC2CCCCC2)N(C)C1CC(=O)Nc1cc(CF)cc(CF)c1.Cl (stereo not shown) [KHG24522, hydrochloride] :: 47.9
CC1SC(=NC2CCCCCC2)N(C)C1CC(=O)Nc1ccc(C(F)(F)F)cc1.Cl (stereo not shown) [KHG24520, hydrochloride] :: 64.8
CN1C(=NC2CCCC2)SCC1CC(=O)Nc1ccc(Br)cc1.Cl (stereo not shown) [KHG24098, hydrochloride] :: 50.5
CN1C(=NCC2CCCCC2)SCC1CC(=O)Nc1cc(C(F)(F)F)cc(C(F)(F)F)c1.Cl (stereo not shown) [KHG24218, hydrochloride] :: 52.8

I: CCCN1C(=NC23CC4CC(CC(C4)C2)C3)SCC1CC(=O)Nc1ccc(C)cc1Cl.Cl (stereo not shown) [KHG24818, hydrochloride]
II: COc1ccc(NC(=O)CC2CSC(=NC34CC5CC(CC(C5)C3)C4)N2C)cc1.Cl (stereo not shown) [KHG24419, hydrochloride]
inhibition at 10 µM comparison. Which is larger, I or II ? Answer format: the label of the selected item.
I
(I: 68.2%, II: 46.7%)

---

observable: melting point (°C)

CN1C(=Nc2cccc([N+](=O)[O-])c2)SCC1CC(=O)Nc1ccc(Cl)cc1.Cl (stereo not drawn) :: 228
CCN1C(=NC2CCCCC2)SCC1CC(=O)Nc1ccc(F)cc1.Cl (stereo not drawn) :: 196.5
Br.CN1C(=NC2CCCCCC2)SCC1C(=O)NCc1cccc(Br)c1 (stereo not drawn) :: 197.3
CN1C(=NCCc2ccccc2)SCC1CC(=O)Nc1ccc(Oc2ccccc2)cc1.Cl (stereo not drawn) :: 225.5
Cl.O=C(CC1CSC(=NC23CC4CC(CC(C4)C2)C3)N1C1CC1)Nc1cc(Cl)ccc1F (stereo not drawn) :: 244

---

observable: melting point (°C)

Cc1ccc(NC(=O)CC2CSC(=NC34CC5CC(CC(C5)C3)C4)N2C(C)C)cc1.Cl (stereo not drawn) [KHG24831] :: 220

A: CC(C)c1ccc(NC(=O)C2CSC(=NC3CCCCCC3)N2C)cc1 (stereo not drawn) [KHG24680]
B: CN1C(=NC2CCCCCC2)SCC1C(=O)NCc1cccc(F)c1 (stereo not drawn) [KHG24667]
Thinking about recorded melting point values, which is higher, A or B ? Selection: enter the item's label.
A
(A: 207.6 °C, B: 140.1 °C)

a: Cc1ccc(NC(=O)CC2CSC(=NC3CCCCC3)N2C2CC2)cc1.Cl (stereo not drawn)
b: CC(C)N1C(=NC23CC4CC(CC(C4)C2)C3)SCC1CC(=O)Nc1cc(Cl)ccc1F.Cl (stereo not drawn) [KHG24835]
Hello, I am sorting some records. Could you say if a or b has the smaller melting point value? Please indicate the selected item by its label.
b
(b: 116 °C, a: 216.4 °C)

P: CC(C)N1C(=NC23CC4CC(CC(C4)C2)C3)SCC1CC(=O)Nc1ccc(Cl)cc1F.Cl (stereo not drawn) [KHG24834]
Q: CCCN1C(=NC23CC4CC(CC(C4)C2)C3)SCC1CC(=O)Nc1cc(Cl)cc(Cl)c1.Cl (stereo not drawn) [KHG24805]
melting point comparison. Which is larger, P or Q ? Your answer should be the label of the entry you select.
P
(P: 228 °C, Q: 153 °C)

---

observable: melting point (°C)

A: CN1C(=NC2CCCCCC2)SCC1C(=O)Nc1cc(C(F)(F)F)cc(C(F)(F)F)c1.Cl (centres unmarked)
B: CC(C)N1C(=NC23CC4CC(CC(C4)C2)C3)SCC1CC(=O)Nc1cc([N+](=O)[O-])ccc1F.Cl (centres unmarked)
# compare melting point for A vs B ; return the one with the smaller value Answer by stating the label of the chosen item.
B
(B: 131 °C, A: 202 °C)

---

target: α1G T-type calcium channel (Homo sapiens); construct: host or cells: HEK293; test: Assay for % inhibiting activity against T-type calcium channel using FDSS6000 (fluo-3 calcium imaging, KCl activation); type: cell-based; details: HEK293, 10 μM; HEK293 cells stably expressing α1G T-type calcium channel and Kir2.1; compounds of the examples; read-out: FDSS (% inhibition)/10uM
observable: inhibition at 10 µM (%)

CN1C(=NC2CCCC2)SCC1CC(=O)Nc1ccc(Cl)cc1.Cl (stereo not drawn) [KHG24106, hydrochloride] :: 49.4
CN1C(=NC2CCCCCC2)SCC1CC(=O)Nc1ccc([N+](=O)[O-])cc1.Cl (stereo not drawn) [KHG24445, hydrochloride] :: 50.8
CCCN1C(=NC2CCCCC2)SCC1CC(=O)Nc1ccc(F)cc1.Cl (stereo not drawn) [KHG24296, hydrochloride] :: 53.1

---

observable: melting point (°C)

CN1C(=NC2CCCCC2)SCC1CC(=O)Nc1cccc(Cl)c1Cl.Cl (centres unmarked) :: 215
CCCCc1ccc(NC(=O)C2CSC(=NC3CCCCCC3)N2C)cc1 (centres unmarked) :: 173.3
CN1C(=NC2CCCCCC2)SCC1C(=O)Nc1ccccc1Cl (centres unmarked) :: 198.4

---

target: α1G T-type calcium channel (Homo sapiens, UniProt O43497); construct: host or cells: HEK293; assay: Assay for % inhibiting activity against T-type calcium channel using FDSS6000 (fluo-3 calcium imaging, KCl activation); assay type: cell-based; conditions: HEK293, 10 μM; HEK293 cells stably expressing α1G T-type calcium channel and Kir2.1; compounds of the examples; read-out: FDSS (% inhibition)/10uM
Structures can show the parent of a compound that is named as a salt.
observable: inhibition at 10 µM (%)

Past entries and their recorded results:
Cl.O=C(CC1CSC(=NC2CCCCC2)N1C1CCCCC1)Nc1ccc(Cl)cc1 (stereo not shown) [KHG24266, hydrochloride] :: 33.6
CN1C(=NC2CCCCC2)SCC1CC(=O)Nc1cc(F)cc(F)c1.Cl (stereo not shown) [KHG24534, hydrochloride] :: 45.7
CN1C(=NCC2CCCCC2)SCC1CC(=O)Nc1ccc(Cl)cc1.Cl (stereo not shown) [KHG24230, hydrochloride] :: 33

a: CC1SC(=NC2CCCC2)N(C)C1CC(=O)Nc1ccc(Cl)cc1.Cl (stereo not shown) [KHG24657, hydrochloride]
b: CN1C(=NC2CCCCC2)SCC1CC(=O)Nc1ccc2c(c1)OCO2 (stereo not shown) [KHG24086, hydrochloride]
// pick larger inhibition at 10 µM from pair: a vs b Label of pick, please.
a

---

observable: melting point (°C)

Examples with answers:
CCCCc1ccc(NC(=O)CC2CSC(=NC3C4CC5CC(C4)CC3C5)N2C)cc1.Cl (stereo not drawn) :: 127
CCCN1C(=NC23CC4CC(CC(C4)C2)C3)SCC1CC(=O)Nc1ccc(Br)cc1.Cl (stereo not drawn) [KHG24812] :: 228
CCN1C(=NC2CCCCC2)SCC1CC(=O)Nc1ccc(Cl)cc1.Cl (stereo not drawn) :: 218.3
CCCCN1C(=NC23CC4CC(CC(C4)C2)C3)SCC1CC(=O)Nc1ccc(C(C)C)cc1.Cl (stereo not drawn) [KHG24795] :: 244
CCN1C(=NC2CCCCC2)SCC1CC(=O)Nc1cc(Cl)cc(Cl)c1.Cl (stereo not drawn) [KHG24414] :: 100.5

a: CCCCc1ccc(NC(=O)CC2CSC(=NC3CCCCC3)N2C2CC2)cc1.Cl (stereo not drawn) [KHG24270]
b: CN1C(=NCC2CCCCC2)SCC1CC(=O)Nc1cc(C(F)(F)F)cc(C(F)(F)F)c1.Cl (stereo not drawn) [KHG24218]
Thinking about recorded melting point values, which is higher, a or b ? # reply format: chosen label
a

---

target: α1G T-type calcium channel (Homo sapiens); construct: host or cells: HEK293; assay: Assay for % inhibiting activity against T-type calcium channel using FDSS6000 (fluo-3 calcium imaging, KCl activation); assay type: cell-based; conditions: 10 μM; HEK293 cells stably expressing α1G T-type calcium channel and Kir2.1; compounds of the examples; hydrochloride
observable: FDSS (% inhibition)/10uM (%)

Example results:
CCc1ccc(NC(=O)CC2CSC(=NC3CCCC3)N2C)cc1.Cl (stereo not shown) :: 34.77
Cc1ccc(NC(=O)CC2CSC(=NC34CC5CC(CC(C5)C3)C4)N2C)c(Cl)c1.Cl (stereo not shown) :: 62.08

P: Cc1ccc(NC(=O)CC2CSC(=NC3CCCCC3)N2C2CCCCC2)cc1.Cl (stereo not shown)
Q: CN1C(=NC23CC4CC(CC(C4)C2)C3)SCC1CC(=O)Nc1cc(Cl)cc(Cl)c1.Cl (stereo not shown)
Which numeric FDSS (% inhibition)/10uM is bigger, that of P or that of Q ? Mark your selection by writing its label.
Q
(Q: 64.09%, P: 40.31%)
